Attribution: patent EP2150534B1

Each entry below lists one item and its recorded Ki value.
TARGET_DESC: human NK3 receptor (Homo sapiens)
Construct: expressed in transfected cells; membranes prepared from them
Sequence (P29371 whole entry): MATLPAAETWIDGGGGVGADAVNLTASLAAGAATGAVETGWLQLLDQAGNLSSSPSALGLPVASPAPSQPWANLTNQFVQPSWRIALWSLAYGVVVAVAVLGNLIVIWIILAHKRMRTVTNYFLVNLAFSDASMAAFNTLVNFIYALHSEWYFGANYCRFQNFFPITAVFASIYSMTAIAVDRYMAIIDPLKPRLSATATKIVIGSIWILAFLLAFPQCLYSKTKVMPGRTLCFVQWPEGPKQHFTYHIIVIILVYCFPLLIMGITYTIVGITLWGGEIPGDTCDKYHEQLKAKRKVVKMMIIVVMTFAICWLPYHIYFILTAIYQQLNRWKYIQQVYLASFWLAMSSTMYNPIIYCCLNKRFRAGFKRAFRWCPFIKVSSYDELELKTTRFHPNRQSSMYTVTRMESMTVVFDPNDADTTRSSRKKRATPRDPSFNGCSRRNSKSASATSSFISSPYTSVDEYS
ASSAY_NAME: NK3 receptor binding assay (SPA-based competition binding with 125I-NKB, membranes of BHK cells)
CONDITION_NOTES: table of Example 10; affinity obtained as described in Example 9; read-out: Affinity Ki
Numeric only. Scale: nM

Here is how some molecules turned out for Ki.
INSERT INTO measurements (molecule, target_desc, reported_metric, obs_value) VALUES
  ('CC[C@H](NC(=O)c1c(CN2CCN(CCN3CCCC3)CC2)n(-c2ccccc2)c(=O)c2ccccc12)c1ccccc1 [Example 2bq]', 'human NK3 receptor (Homo sapiens)', 'Ki', 160),
  ('CC[C@H](NC(=O)c1c(CNC(C)(C)C)n(-c2ccccc2)c(=O)c2ccccc12)c1ccccc1 [Example 2ec]', 'human NK3 receptor (Homo sapiens)', 'Ki', 210),
  ('CC[C@H](NC(=O)c1c(CN2CCC(O)(c3cccc(OC)c3)CC2)n(-c2ccccc2)c(=O)c2ccccc12)c1ccccc1 [Example 2gt]', 'human NK3 receptor (Homo sapiens)', 'Ki', 9.2);

Let us move to another entry and its Ki.
-- ask # query: Ki of entry O=C(NC(c1cccc(F)c1)C1CC1)c1c(CN2CCC(O)(c3ccncc3)CC2)n(-c2ccccc2)c(=O)c2ccccc12 (stereo not shown) [Example 2hx]
-- reply 9.3
